Data credit: paper PMC11225515

Measured melting point accompanies every entry in the list below.

QUERY: Requested field: melting point. Item: O=c1c2cc(Br)ccc2nc(SCc2ccc(Cl)cc2)n1-c1ccccc1 [8f]
RESULT: 145 to 147 °C

New cases:
QUERY: I'd like to know its melting point. The compound in question is O=c1c2cc(Br)ccc2nc(SCc2ccccc2)n1-c1ccccc1 [8c]
RESULT: 140 to 142 °C

QUERY: Name the reported melting point value associated with the compound O=c1c2cc(Br)ccc2nc(SCc2ccc(Br)cc2)n1-c1ccccc1 [8g]
RESULT: 175 to 177 °C

---

test system: MRC-5 normal cell line; experiment: MTT cytotoxic assay, normal cell line MRC-5; type: cell-based; settings: Homo sapiens, MRC5, 3 repetitions, read-out: IC50 ± SD MRC-5
parameter: IC50 (µM)
All answers are understood in µM, so give the number only.

QUERY: I would be grateful if you could share the reported IC50 for `CCCCSc1nc2ccc(Br)cc2c(=O)n1-c1ccccc1` .
RESULT: 84.2

QUERY: Looking for the measured IC50 of C#Cc1cccc(Nc2ncnc3cc(OCCOC)c(OCCOC)cc23)c1 [Erlotinib, reference compound] , can you help?
RESULT: 22.9

QUERY: Quick one: IC50 for COc1cccc2c1C(=O)c1c(O)c3c(c(O)c1C2=O)C[C@@](O)(C(=O)CO)C[C@@H]3O[C@H]1C[C@H](N)[C@H](O)[C@H](C)O1 [Doxorubicin, reference compound] ?
RESULT: 0.52

QUERY: Reported IC50, compound `CCCCCSc1nc2ccc(Br)cc2c(=O)n1-c1ccccc1` : ____
RESULT: 76.4
